Source listed as paper PMC9532562.

pIC50: −log10 of the molar value.
Record set of pIC50 for target or system HDAC3 (Homo sapiens).
endpoint label: pIC50

>  <compound>
O=C(NO)c1ccc(CN2CCCCc3ccccc32)cc1F [15d]

>  <pIC50>
5.61

$$$$
>  <compound>
O=C(NO)c1ccc(CN2CCCCc3ccccc32)c(F)c1 [15c]

>  <pIC50>
5.53

$$$$

---

target: CYP2D6 (Homo sapiens)
Sequence (P10635 whole entry): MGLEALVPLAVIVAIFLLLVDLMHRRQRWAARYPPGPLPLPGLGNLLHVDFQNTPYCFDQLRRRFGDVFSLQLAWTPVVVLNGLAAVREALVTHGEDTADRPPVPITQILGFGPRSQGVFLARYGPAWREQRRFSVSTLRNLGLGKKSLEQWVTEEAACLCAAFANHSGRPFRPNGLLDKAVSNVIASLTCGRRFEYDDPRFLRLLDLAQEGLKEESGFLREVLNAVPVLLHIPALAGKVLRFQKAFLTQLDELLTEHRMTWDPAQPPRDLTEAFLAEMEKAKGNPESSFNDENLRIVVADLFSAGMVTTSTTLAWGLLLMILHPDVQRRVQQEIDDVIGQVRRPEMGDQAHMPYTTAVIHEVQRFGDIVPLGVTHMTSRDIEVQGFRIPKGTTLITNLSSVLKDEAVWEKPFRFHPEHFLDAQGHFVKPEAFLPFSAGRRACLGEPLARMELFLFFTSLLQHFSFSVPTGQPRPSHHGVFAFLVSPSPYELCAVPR
test protocol: CYP inhibition assay, pooled human liver microsomes
Type: in vitro ADME
condition details: probe dextromethorphan
endpoint label: inhibition at 10 min, 10 μmol/L (%)
Report the figure in % without appending any unit label.

**Q:** What does the record list as inhibition at 10 min, 10 μmol/L for O=C(NO)c1ccc(CN2CCCCc3ccccc32)c(F)c1 [15c] ?
**A:** 36.3
